- measurementTarget: UniProt P16257
- Sequence (P16257 whole entry, looked up): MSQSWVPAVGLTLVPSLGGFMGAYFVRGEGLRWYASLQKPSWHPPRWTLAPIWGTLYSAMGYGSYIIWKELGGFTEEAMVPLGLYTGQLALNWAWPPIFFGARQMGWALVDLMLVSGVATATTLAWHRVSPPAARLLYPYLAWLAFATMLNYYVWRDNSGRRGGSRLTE
- protocolDescription: The compound was tested for binding affinity against PBR(peripheral benzodiazepine receptor) in normal rat brain homogenate
- Format: tissue-based
experimentalEndpoint: pIC50
Would you please state pIC50, meaning minus log10 of the concentration in mol/L, as a bare number?

* O=C1CN=C(c2ccccc2)c2cc(Cl)ccc2N1 [NORDAZEPAM] | 3.28

Now consider the entry below.
Query :: Any idea what its pIC50 is? The compound is CCOC(=O)[C@@H](Cc1ccc(N(CCCl)CCCl)cc1)NC(=O)CCCN1C(=O)CN=C(c2ccccc2)c2cc(Cl)ccc21
Result :: 3.49

* * *

The entries below are paired with their reported pIC50.
- Test system: RG2
- protocolDescription: The compound was tested for cytotoxicity against RG-2 (Rat) Glioma cell lines
- Type: functional, cell-based
To interpret pIC50, take it as minus log10 of a concentration measured in moles per litre.

- N[C@@H](Cc1ccc(N(CCCl)CCCl)cc1)C(=O)O: 4.82

Let's switch to this compound now.
Query :: Can you share its pIC50? I mean this compound: CCOC(=O)[C@@H](Cc1ccc(N(CCCl)CCCl)cc1)NC(=O)CCCN1C(=O)CN=C(c2ccccc2)c2cc(Cl)ccc21
Result :: 4.46

* * *

- System: C6
- protocolDescription: The compound was tested for cytotoxicity against C6-MR (Rat) Glioma cell lines
- Format: functional, cell-based
Recorded pIC50 for the following compounds
Worth noting: pIC50 values are minus log10 of concentrations stated in mol/L.

* N[C@@H](Cc1ccc(N(CCCl)CCCl)cc1)C(=O)O | 4.13

Query :: What value of measured pIC50 is listed for CCOC(=O)[C@@H](Cc1ccc(N(CCCl)CCCl)cc1)NC(=O)CCCN1C(=O)CN=C(c2ccccc2)c2cc(Cl)ccc21 ?
Result :: 4.13

* * *

- System: C6
- protocolDescription: The compound was tested for cytotoxicity against C6 (Rat) Glioma cell lines
- Assay type: functional, cell-based
experimentalEndpoint: pIC50
Note on pIC50: it is the negative log10 of concentration, concentration in mol/L.

- N[C@@H](Cc1ccc(N(CCCl)CCCl)cc1)C(=O)O: 4.96

Query :: Reported pIC50 for CCOC(=O)[C@@H](Cc1ccc(N(CCCl)CCCl)cc1)NC(=O)CCCN1C(=O)CN=C(c2ccccc2)c2cc(Cl)ccc21 : what is it?
Result :: 4.36

* * *

- Test system: D341 cell line
- protocolDescription: The compound was tested for cytotoxicity against D341 MR (human) Glioma cell lines
- Assay type: functional, cell-based
experimentalEndpoint: pIC50
Just so you know, pIC50 here is -log10 of the concentration in molar units; reply with that number alone.

• N[C@@H](Cc1ccc(N(CCCl)CCCl)cc1)C(=O)O = 4.28

Then there is this compound:
Query :: Fill in: pIC50 of CCOC(=O)[C@@H](Cc1ccc(N(CCCl)CCCl)cc1)NC(=O)CCCN1C(=O)CN=C(c2ccccc2)c2cc(Cl)ccc21 is ___
Result :: 4.48

* * *

- System: SF-126
- protocolDescription: The compound was tested for cytotoxicity against SF-126 (human) Glioma cell lines
- Type: functional, cell-based
experimentalEndpoint: IC50 (µM)
Kindly answer with a numeric value in µM, unit omitted.

* CCOC(=O)[C@@H](Cc1ccc(N(CCCl)CCCl)cc1)NC(=O)CCCN1C(=O)CN=C(c2ccccc2)c2cc(Cl)ccc21 | 21

Query :: Missing value: IC50, SF-126, entry N[C@@H](Cc1ccc(N(CCCl)CCCl)cc1)C(=O)O . Fill in?
Result :: 103
